# Experimental Details: Pharmacokinetics of FOLFIRI components with and without veliparib (relative bioavailability)
# Condition Context: human, plasma, intravenous, Cmax, central value, test, FOLFIRI + veliparib, cycle 1 day 15
Endpoint Name: Cmax (ng/mL)
Express the result in ng/mL but write the number alone.

So what's the measured Cmax for this one? CCc1c2c(nc3ccc(OC(=O)N4CCC(N5CCCCC5)CC4)cc13)-c1cc3c(c(=O)n1C2)COC(=O)[C@]3(O)CC
1790

====

# Experimental Details: Pharmacokinetics of FOLFIRI components with and without veliparib (relative bioavailability)
# Condition Context: human, plasma, intravenous, Cmax, central value, reference, FOLFIRI alone, cycle 1 day 1
Endpoint Name: Cmax (ng/mL)
// note: answer is a bare numeric in ng/mL

Requested read-out: Cmax. Entry: CCc1c2c(nc3ccc(OC(=O)N4CCC(N5CCCCC5)CC4)cc13)-c1cc3c(c(=O)n1C2)COC(=O)[C@]3(O)CC [Irinotecan, irinotecan]
1780

Where these numbers come from: paper PMC5933261
